target.entity: GABAA receptors composed of the α1β2γ2 subunits (GABRA1/GABRB2/GABRG2) (Homo sapiens, UniProt P14867+P47870)
Construct: expressed in transfected cells; host or cells: Xenopus laevis oocytes, injected (ratio 1:1:1)
Sequence (P14867 28-456): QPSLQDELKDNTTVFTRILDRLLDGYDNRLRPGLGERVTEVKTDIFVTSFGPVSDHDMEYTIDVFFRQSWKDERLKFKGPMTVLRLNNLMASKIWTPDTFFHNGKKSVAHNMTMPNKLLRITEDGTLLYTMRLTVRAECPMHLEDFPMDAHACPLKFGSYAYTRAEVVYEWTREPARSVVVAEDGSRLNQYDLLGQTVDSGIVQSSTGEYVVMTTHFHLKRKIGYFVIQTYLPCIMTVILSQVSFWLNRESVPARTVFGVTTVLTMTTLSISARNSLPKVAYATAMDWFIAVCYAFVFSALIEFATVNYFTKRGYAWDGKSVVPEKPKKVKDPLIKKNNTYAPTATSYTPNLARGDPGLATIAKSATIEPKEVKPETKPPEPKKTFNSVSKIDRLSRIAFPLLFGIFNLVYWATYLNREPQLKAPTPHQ
Sequence (P47870 26-512): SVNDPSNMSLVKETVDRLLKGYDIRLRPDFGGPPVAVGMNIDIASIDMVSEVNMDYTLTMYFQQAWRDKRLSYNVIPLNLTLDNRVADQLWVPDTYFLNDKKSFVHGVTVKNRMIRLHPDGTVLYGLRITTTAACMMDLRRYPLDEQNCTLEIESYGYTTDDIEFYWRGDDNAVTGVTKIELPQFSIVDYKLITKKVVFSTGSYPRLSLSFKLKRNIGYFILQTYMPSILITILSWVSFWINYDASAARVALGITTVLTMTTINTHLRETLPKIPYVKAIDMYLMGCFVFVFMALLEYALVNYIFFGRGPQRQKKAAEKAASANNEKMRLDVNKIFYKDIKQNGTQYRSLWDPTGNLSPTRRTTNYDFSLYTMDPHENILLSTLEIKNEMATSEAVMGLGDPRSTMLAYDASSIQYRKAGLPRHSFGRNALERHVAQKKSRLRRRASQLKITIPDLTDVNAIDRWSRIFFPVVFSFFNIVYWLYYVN
Sequence (P18507 40-475 partner): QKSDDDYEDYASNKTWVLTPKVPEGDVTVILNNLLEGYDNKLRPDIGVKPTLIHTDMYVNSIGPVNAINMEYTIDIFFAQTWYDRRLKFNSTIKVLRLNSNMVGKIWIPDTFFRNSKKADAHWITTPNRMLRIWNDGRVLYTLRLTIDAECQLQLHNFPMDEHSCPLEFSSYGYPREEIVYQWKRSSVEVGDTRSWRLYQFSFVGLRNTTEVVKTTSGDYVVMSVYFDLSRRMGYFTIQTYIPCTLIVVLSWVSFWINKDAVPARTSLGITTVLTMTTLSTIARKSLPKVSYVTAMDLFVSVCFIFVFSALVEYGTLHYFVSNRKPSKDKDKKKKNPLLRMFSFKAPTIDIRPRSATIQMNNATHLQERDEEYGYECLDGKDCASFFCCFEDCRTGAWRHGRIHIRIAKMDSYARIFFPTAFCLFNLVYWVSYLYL
assay: Two Electrode Voltage Clamp (TEVC), GABA receptor potentiation in Xenopus laevis oocytes, α1β2γ2
Format: cell-based
condition.info: 10 μM compound, 10 μM GABA, read-out: GABA (α1β2γ2) % efficacy at 10 μM
Property: Emax at 10 µM; scope: individual compounds

// below: answered compounds
INSERT INTO results (compound, result) VALUES
  ('COC[C@]12CC[C@@](C)(O)C[C@@H]1CC[C@H]1[C@@H]3CC[C@H](C(=O)Cn4cc(C)cn4)[C@@]3(C)CC[C@@H]12 [Compound 20]', '500 to 1000%'),
  ('COC[C@]12CC[C@@](C)(O)C[C@@H]1CC[C@H]1[C@@H]3CC[C@H](C(=O)Cn4nc5cccc(Cl)c5n4)[C@@]3(C)CC[C@@H]12 [Compound 61]', '500 to 1000%'),
  ('COC[C@]12CC[C@@](C)(O)C[C@H]1CC[C@H]1[C@@H]3CC[C@H](C(=O)Cn4nnc5ccc(F)cc54)[C@@]3(C)CC[C@@H]12 [Compound 74]', '500 to 1000%'),
  ('COC[C@]12CC[C@@](C)(O)C[C@@H]1CC[C@H]1[C@@H]3CC[C@H](C(=O)Cn4nc5ccc(OC(F)(F)F)cc5n4)[C@@]3(C)CC[C@@H]12 [Compound 104]', '50 to 500%'),
  ('COC[C@]12CC[C@@](C)(O)C[C@@H]1CC[C@H]1[C@@H]3CC[C@H](C(=O)Cn4nnc5c(F)c(F)ccc54)[C@@]3(C)CC[C@@H]12 [Compound 53]', '50 to 500%');

Shift focus to the following entry.
Item COC[C@]12CC[C@@](C)(O)C[C@@H]1CC[C@H]1[C@@H]3CC[C@H](C(=O)Cn4ncc5ccc(Cl)cc54)[C@@]3(C)CC[C@@H]12 [Compound 112] has what recorded Emax at 10 µM? 50 to 500%

---

target.entity: GABAA receptors composed of the α1β2γ2 subunits (GABRA1/GABRB2/GABRG2) (Homo sapiens, UniProt P14867+P47870)
Construct: expressed in transfected cells; host or cells: Xenopus laevis oocytes, injected (ratio 1:1:1)
assay: Two Electrode Voltage Clamp (TEVC), GABA receptor potentiation in Xenopus laevis oocytes, α1β2γ2
Format: cell-based
condition.info: 10 μM compound, 10 μM GABA, read-out: GABA (α1β2γ2) % efficacy at 10 μM
Emax at 10 µM listing for selected compounds.

INSERT INTO results (smiles_structure, measured_parameter, result) VALUES
  ('COC[C@]12CC[C@@](C)(O)C[C@@H]1CC[C@H]1[C@@H]3CC[C@H](C(=O)Cn4nc5cccc(OC)c5n4)[C@@]3(C)CC[C@@H]12', 'Emax at 10 µM', '50 to 500%'),
  ('COC[C@]12CC[C@@](C)(O)C[C@@H]1CC[C@H]1[C@@H]3CC[C@H](C(=O)Cn4cnc(C)c4)[C@@]3(C)CC[C@@H]12', 'Emax at 10 µM', '500 to 1000%');

Would you kindly look at the next entry?
Query: Emax at 10 µM; subject: COC[C@]12CC[C@@](C)(O)C[C@H]1CC[C@H]1[C@@H]3CC[C@H](C(=O)Cn4nnc5c(F)cccc54)[C@@]3(C)CC[C@@H]12 500 to 1000%

---

target.entity: recombinant α1β2γ2 GABAA receptors (Homo sapiens, UniProt P14867+P47870)
Construct: expressed in transfected cells; host or cells: LTK cells, stably transfected
Sequence (P14867 28-456): as the sequence (P14867 28-456) above
Sequence (P47870 26-512): as the sequence (P47870 26-512) above
Sequence (P18507 40-475 partner): as the sequence (P18507 40-475 partner) above
assay: Patch clamp electrophysiology (QPatch) in LTK cells stably transfected with α1β2γ2
Type: cell-based
condition.info: 10 μM compound, 2 μM GABA (EC20), read-out: GABA (α1β2γ2) Qpatch in Ltk, % efficacy at 10 μM
measured.parameter: Emax at 10 µM

INSERT INTO results (molecule, target_entity, result) VALUES
  ('COC[C@]12CC[C@@](C)(O)C[C@@H]1CC[C@H]1[C@@H]3CC[C@H](C(=O)Cn4nnnc4C)[C@@]3(C)CC[C@@H]12 [Compound 16]', 'recombinant α1β2γ2 GABAA receptors (Homo sapiens, UniProt P14867+P47870)', '> 500%'),
  ('COC[C@]12CC[C@@](C)(O)C[C@@H]1CC[C@H]1[C@@H]3CC[C@H](C(=O)Cn4nc5cc(F)cc(F)c5n4)[C@@]3(C)CC[C@@H]12 [Compound 55]', 'recombinant α1β2γ2 GABAA receptors (Homo sapiens, UniProt P14867+P47870)', '> 500%'),
  ('COC[C@]12CC[C@@](C)(O)C[C@@H]1CC[C@H]1[C@@H]3CC[C@H](C(=O)Cn4ccc(C#N)n4)[C@@]3(C)CC[C@@H]12 [Compound 19]', 'recombinant α1β2γ2 GABAA receptors (Homo sapiens, UniProt P14867+P47870)', '100 to 500%'),
  ('COC[C@]12CC[C@@](C)(O)C[C@@H]1CC[C@H]1[C@@H]3CC[C@H](C(=O)Cn4nnc5ccc(F)c(F)c54)[C@@]3(C)CC[C@@H]12 [Compound 52]', 'recombinant α1β2γ2 GABAA receptors (Homo sapiens, UniProt P14867+P47870)', '100 to 500%'),
  ('COC[C@]12CC[C@@](C)(O)C[C@H]1CC[C@H]1[C@@H]3CC[C@H](C(=O)Cn4nnnc4C)[C@@]3(C)CC[C@@H]12 [Compound 30]', 'recombinant α1β2γ2 GABAA receptors (Homo sapiens, UniProt P14867+P47870)', '100 to 500%');

Consider the record given below.
// lookup Emax at 10 µM for COC[C@]12CC[C@@](C)(O)C[C@@H]1CC[C@H]1[C@@H]3CC[C@H](C(=O)Cn4ncnn4)[C@@]3(C)CC[C@@H]12 [Compound 14] 100 to 500%

---

Recorded Emax at 10 µM values for a group of compounds are listed next.
target.entity: recombinant α4β3δ GABAA receptors (Homo sapiens, UniProt P28472+P48169)
Construct: expressed in transfected cells; host or cells: CHO cells, transiently transfected (Lipofectamine)
Sequence (P48169 36-554): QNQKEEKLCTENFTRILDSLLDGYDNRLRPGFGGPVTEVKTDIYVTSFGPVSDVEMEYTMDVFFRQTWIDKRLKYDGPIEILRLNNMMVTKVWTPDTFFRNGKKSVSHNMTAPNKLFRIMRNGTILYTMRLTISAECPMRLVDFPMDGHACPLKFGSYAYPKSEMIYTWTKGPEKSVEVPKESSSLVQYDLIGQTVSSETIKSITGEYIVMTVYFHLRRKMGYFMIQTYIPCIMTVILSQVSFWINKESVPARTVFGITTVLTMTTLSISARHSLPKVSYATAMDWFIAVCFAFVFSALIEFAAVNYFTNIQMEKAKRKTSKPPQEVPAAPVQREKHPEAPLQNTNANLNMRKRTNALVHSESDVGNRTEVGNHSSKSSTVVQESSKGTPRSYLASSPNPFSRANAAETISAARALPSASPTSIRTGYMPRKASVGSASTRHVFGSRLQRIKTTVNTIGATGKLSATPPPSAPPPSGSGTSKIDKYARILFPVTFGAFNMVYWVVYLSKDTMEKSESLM
Sequence (P28472 26-473): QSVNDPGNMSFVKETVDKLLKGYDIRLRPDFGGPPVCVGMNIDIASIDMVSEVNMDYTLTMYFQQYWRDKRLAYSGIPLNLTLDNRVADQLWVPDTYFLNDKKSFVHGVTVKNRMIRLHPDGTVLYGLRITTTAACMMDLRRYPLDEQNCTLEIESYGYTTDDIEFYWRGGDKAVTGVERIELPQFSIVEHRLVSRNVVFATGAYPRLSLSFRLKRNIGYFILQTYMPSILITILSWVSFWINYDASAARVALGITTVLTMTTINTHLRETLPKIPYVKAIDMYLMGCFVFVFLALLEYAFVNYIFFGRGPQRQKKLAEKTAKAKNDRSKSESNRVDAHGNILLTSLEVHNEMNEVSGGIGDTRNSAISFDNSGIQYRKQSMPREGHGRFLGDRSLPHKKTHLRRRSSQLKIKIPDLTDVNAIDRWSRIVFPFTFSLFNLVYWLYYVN
Sequence (O14764 25-452 partner): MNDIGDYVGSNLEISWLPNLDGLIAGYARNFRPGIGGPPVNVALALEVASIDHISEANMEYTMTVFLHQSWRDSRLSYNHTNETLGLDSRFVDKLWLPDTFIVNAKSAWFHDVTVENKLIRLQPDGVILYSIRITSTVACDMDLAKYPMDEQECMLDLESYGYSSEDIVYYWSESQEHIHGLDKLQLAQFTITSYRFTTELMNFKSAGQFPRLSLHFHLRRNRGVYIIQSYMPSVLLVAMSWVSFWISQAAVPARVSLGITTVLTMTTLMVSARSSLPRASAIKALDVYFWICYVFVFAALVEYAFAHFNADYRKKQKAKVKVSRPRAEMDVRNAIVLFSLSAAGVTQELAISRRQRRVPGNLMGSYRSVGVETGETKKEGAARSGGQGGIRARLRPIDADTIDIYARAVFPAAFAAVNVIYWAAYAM
assay: Manual patch clamp electrophysiology in CHO cells transiently transfected with α4β3δ
Type: cell-based
condition.info: 10 μM compound, 2 μM GABA (EC20), read-out: GABA (α4β3δ) Manual patch in CHO, % efficacy at 10 μM

Solved entries:
INSERT INTO measurements (compound, result) VALUES
  ('COC[C@]12CC[C@@](C)(O)C[C@@H]1CC[C@H]1[C@@H]3CC[C@H](C(=O)Cn4nc5ccc(F)cc5n4)[C@@]3(C)CC[C@@H]12 [Compound 43]', '100 to 500%'),
  ('COC[C@]12CC[C@@](C)(O)C[C@@H]1CC[C@H]1[C@@H]3CC[C@H](C(=O)Cn4nccn4)[C@@]3(C)CC[C@@H]12 [Compound 1]', '> 500%'),
  ('COC[C@]12CC[C@@](C)(O)C[C@@H]1CC[C@H]1[C@@H]3CC[C@H](C(=O)Cn4ccc(C#N)n4)[C@@]3(C)CC[C@@H]12 [Compound 19]', '100 to 500%'),
  ('COC[C@]12CC[C@@](C)(O)C[C@@H]1CC[C@H]1[C@@H]3CC[C@H](C(=O)Cn4cnnn4)[C@@]3(C)CC[C@@H]12 [Compound 15]', '100 to 500%'),
  ('COC[C@]12CC[C@@](C)(O)C[C@@H]1CC[C@H]1[C@@H]3CC[C@H](C(=O)Cn4nnc5ccc(Cl)cc54)[C@@]3(C)CC[C@@H]12 [Compound 36]', '100 to 500%');

Report Emax at 10 µM for COC[C@]12CC[C@@](C)(O)C[C@@H]1CC[C@H]1[C@@H]3CC[C@H](C(=O)Cn4nnnc4C)[C@@]3(C)CC[C@@H]12 [Compound 16] please. > 500%

What Emax at 10 µM value was documented for this compound, COC[C@]12CC[C@@](C)(O)C[C@@H]1CC[C@H]1[C@@H]3CC[C@H](C(=O)Cn4nc5cc(F)cc(F)c5n4)[C@@]3(C)CC[C@@H]12 [Compound 55] ? > 500%

For COC[C@]12CC[C@@](C)(O)C[C@@H]1CC[C@H]1[C@@H]3CC[C@H](C(=O)Cn4nnc5ccc(F)c(F)c54)[C@@]3(C)CC[C@@H]12 [Compound 52] , what is its reported Emax at 10 µM? > 500%

Given the compound COC[C@]12CC[C@@](C)(O)C[C@@H]1CC[C@H]1[C@@H]3CC[C@H](C(=O)Cn4ncnn4)[C@@]3(C)CC[C@@H]12 [Compound 14] , what is its reported Emax at 10 µM? > 500%

# Emax at 10 µM lookup, item COC[C@]12CC[C@@](C)(O)C[C@@H]1CC[C@H]1[C@@H]3CC[C@H](C(=O)Cn4nc5ccc(Cl)cc5n4)[C@@]3(C)CC[C@@H]12 [Compound 35] 100 to 500%

// returns reported Emax at 10 µM for input COC[C@]12CC[C@@](C)(O)C[C@@H]1CC[C@H]1[C@@H]3CC[C@H](C(=O)Cn4nc5ccc(F)c(F)c5n4)[C@@]3(C)CC[C@@H]12 [Compound 54] > 500%

Given COC[C@]12CC[C@@](C)(O)C[C@H]1CC[C@H]1[C@@H]3CC[C@H](C(=O)Cn4nnnc4C)[C@@]3(C)CC[C@@H]12 [Compound 30] , state its recorded Emax at 10 µM. > 500%

Given COC[C@]12CC[C@@](C)(O)C[C@@H]1CC[C@H]1[C@@H]3CC[C@H](C(=O)Cn4nnc5cc(Cl)ccc54)[C@@]3(C)CC[C@@H]12 [Compound 37] , state its recorded Emax at 10 µM. > 500%

# get_value(readout='Emax at 10 µM', item= COC[C@]12CC[C@@](C)(O)C[C@H]1CC[C@H]1[C@@H]3CC[C@H](C(=O)Cn4nc5ccc(Cl)cc5n4)[C@@]3(C)CC[C@@H]12 [Compound 76] ) > 500%
